- TARGET DESC: human renin (Homo sapiens, UniProt P00797)
- Construct: angiotensin-I released from human renin substrate by human resin in human plasma; from tissue; host or cells: human plasma (containing EDTA)
- Sequence (P00797 67-406): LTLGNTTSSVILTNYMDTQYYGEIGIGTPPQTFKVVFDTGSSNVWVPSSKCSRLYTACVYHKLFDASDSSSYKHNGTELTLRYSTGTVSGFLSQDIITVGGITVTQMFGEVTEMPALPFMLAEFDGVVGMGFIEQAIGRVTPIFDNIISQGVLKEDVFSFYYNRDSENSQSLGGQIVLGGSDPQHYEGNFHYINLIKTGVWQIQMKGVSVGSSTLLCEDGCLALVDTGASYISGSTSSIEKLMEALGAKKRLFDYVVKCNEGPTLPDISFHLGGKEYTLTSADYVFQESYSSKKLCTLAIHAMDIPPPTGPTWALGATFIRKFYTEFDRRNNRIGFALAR
- ASSAY REMARKS: human renin-renin substrate reaction in vitro; radioimmunoassay of angiotensin-I released in human plasma
- Format: biochemical
- CONDITION CONTEXT: Table 5; human renin-renin substrate reaction in vitro; read-out: IC50
pIC50: −log10 of the molar value.
Tag: yes if measured pIC50 is not below 6, no if it is.

INSERT INTO measurements (compound, target_desc, label_value) VALUES
  ('CC(C)C[C@@H](CN[C@@H](Cc1ccccc1)C(=O)N[C@H](C(=O)N[C@@H](Cc1ccc(O)cc1)C(=O)O)C(C)C)NC(=O)[C@H](Cc1c[nH]cn1)NC(=O)[C@H](Cc1ccccc1)NC(=O)[C@@H]1CCCN1C(=O)[C@@H](N)Cc1c[nH]cn1 [Example IX]', 'human renin (Homo sapiens, UniProt P00797)', 'no');

Query: # bool: pIC50 of CC(C)C[C@@H](CN[C@@H](CC(C)C)C(=O)N[C@H](C(=O)N[C@@H](Cc1ccc(O)cc1)C(=O)O)C(C)C)NC(=O)[C@H](Cc1c[nH]cn1)NC(=O)[C@H](Cc1ccccc1)NC(=O)[C@@H]1CCCN1 [Example II, H-Pro-Phe-His-Leu-reduced-Leu-Val-Tyr-OH] >= 6
Response: no

Query: Exam item: decide whether the reported pIC50 for CC[C@H](C)[C@H](NC(=O)[C@@H](NC[C@H](CC(C)C)NC(=O)[C@H](Cc1c[nH]cn1)NC(=O)[C@H](Cc1ccccc1)NC(=O)[C@@H]1CCCN1C(=O)[C@@H](N)Cc1c[nH]cn1)C(C)C)C(=O)N[C@@H](Cc1ccc(O)cc1)C(=O)O [Example X] is at least 6.
Response: yes

Query: Tell me whether pIC50 is at least 6 here: CC(C)[C@H](NC(=O)[C@H](Cc1ccccc1)NC[C@H](Cc1ccccc1)NC(=O)[C@H](Cc1c[nH]cn1)NC(=O)[C@H](Cc1ccccc1)NC(=O)[C@@H]1CCCN1C(=O)[C@H](Cc1c[nH]cn1)NC(=O)[C@@H]1CCCN1)C(=O)N[C@@H](Cc1ccc(O)cc1)C(=O)N[C@@H](CCCCN)C(=O)O [Example XI]
Response: yes

###

Readings of IC50 for the listed compounds
- TARGET DESC: human renin (Homo sapiens)
- Construct: angiotensin-I released from human renin substrate by human resin in human plasma; from tissue; host or cells: human plasma (containing EDTA)
- ASSAY REMARKS: human renin-renin substrate reaction in vitro; radioimmunoassay of angiotensin-I released in human plasma
- Type: biochemical
- CONDITION CONTEXT: Table I; human renin in human plasma; read-out: IC50, μM human
Where a SMILES comes first, the peptide text is derived from it. The star is where a group is joined. X3 = CC[C@H](C)[C@H](NC(=O)[C@@H](NC[C@H](CC(C)C)N*)C(C)C)C(=O)N[C@@H](Cc1ccc(O)cc1)C(=O)O
Write the numeric value and follow it with the unit.

INSERT INTO measurements (compound, assay_result) VALUES
  ('CC[C@H](C)[C@H](NC(=O)[C@@H](NC[C@H](CC(C)C)NC(=O)[C@H](Cc1c[nH]cn1)NC(=O)[C@H](Cc1ccccc1)NC(=O)[C@@H]1CCCN1C(=O)[C@H](Cc1c[nH]cn1)NC(=O)[C@@H]1CCCN1)C(C)C)C(=O)N[C@@H](Cc1ccc(O)cc1)C(=O)O [XXX] (H-PHPFH-X3)', '0.048 µM'),
  ('CC[C@H](C)[C@H](NC(=O)[C@@H](NC[C@H](CC(C)C)NC(=O)[C@H](Cc1c[nH]cn1)NC(=O)[C@H](Cc1ccccc1)NC(=O)[C@@H]1CCCN1C(=O)[C@H](Cc1c[nH]cn1)NC(=O)[C@@H]1CCCN1)C(C)C)C(=O)N[C@@H](Cc1ccc(O)cc1)C(=O)NCCCCCN [XX]', '3 µM'),
  ('CC[C@H](C)[C@H](NC(=O)[C@@H](NC[C@H](CC(C)C)NC(=O)[C@H](Cc1c[nH]cn1)NC(=O)[C@H](Cc1ccccc1)NC(=O)[C@@H]1CCCN1C(=O)[C@@H](N)Cc1c[nH]cn1)C(C)C)C(=O)N[C@@H](Cc1c[nH]cn1)C(=O)N[C@@H](CCCCN)C(=O)O [XXXI]', '0.06 µM');

Turning now to a further compound:
Query: Which IC50 value is on record for CC[C@H](C)[C@H](NC(=O)[C@@H](NC[C@H](CC(C)C)NC(=O)[C@H](Cc1c[nH]cn1)NC(=O)[C@H](Cc1ccccc1)NC(=O)[C@@H]1CCCN1C(=O)[C@@H](N)CCCNC(=N)N)C(C)C)C(=O)N[C@@H](Cc1ccc(O)cc1)C(=O)O [XXIV] ?
Response: 0.55 µM
